- protocolSummary: Part B multiple-ascending-dose plasma PK in healthy subjects
- Format: in vivo, human
- measurementConditions: human, plasma, iv; part B cohort 10 (4 subjects), 0.5 g q6h 3-h i.v. infusion, day 8
measurementKind: half-life

{"smilesNotation": "CC1=C[C@@H]2CN(C(=O)N2OS(=O)(=O)O)[C@@H]1C(N)=O", "measurementKind": "half-life", "reportedMeasurement": "2.6 h"}

====

- protocolSummary: Part D multiple-dose coadministration of DUR, SUL and IMI-CIL, plasma PK in healthy subjects
- measurementConditions: human, in vivo, Tmax, DUR 1 g + SUL 1 g + IMI-CIL 0.5 g q6h, day 1, median, n=10
measurementKind: Tmax (h)

{"molecule": "CC1(C)C[C@@H]1C(=O)N/C(=C\\CCCCSC[C@H](N)C(=O)O)C(=O)O [CIL, cilastatin]", "measurementKind": "Tmax", "reportedMeasurement": 0.5}
{"molecule": "CC1(C)[C@H](C(=O)O)N2C(=O)C[C@H]2S1(=O)=O [SUL, Sulbactam]", "measurementKind": "Tmax", "reportedMeasurement": 2.7}

====

- protocolSummary: Part D multiple-dose coadministration of DUR, SUL and IMI-CIL, plasma PK in healthy subjects
- measurementConditions: human, in vivo, AUC0–tau, DUR 1 g + SUL 1 g + IMI-CIL 0.5 g q6h, day 11
measurementKind: AUC (ng·h/mL)

{"smilesNotation": "CC1(C)[C@H](C(=O)O)N2C(=O)C[C@H]2S1(=O)=O", "reportedMeasurement": 67900}
{"smilesNotation": "CC1(C)C[C@@H]1C(=O)N/C(=C\\CCCCSC[C@H](N)C(=O)O)C(=O)O", "reportedMeasurement": 39400}

====

- protocolSummary: Urine PK (urinary excretion, renal clearance) in healthy subjects
- measurementConditions: human, urine, intravenous, CLr, part C cohort 14, Day 8, placebo subjects (no DUR), n=2

{"molecule": "C[C@@H](O)[C@H]1C(=O)N2C(C(=O)O)=C(SCCN=CN)C[C@H]12 [IMI, imipenem, reference compound]", "CL renal [mL/min]": 70.4}

====

- protocolSummary: Part A single-ascending-dose plasma PK in healthy subjects
- Type: in vivo, human
- measurementConditions: human, plasma, iv, 1 g, part A cohort 3, single 1.0 g, 3-h i.v. infusion, mean ± SD, n=6; read-out: t1/2 (converted)

{"smilesNotation": "CC1=C[C@@H]2CN(C(=O)N2OS(=O)(=O)O)[C@@H]1C(N)=O", "half-life [h]": 2}

====

- protocolSummary: Part A single-ascending-dose plasma PK in healthy subjects
- Assay type: in vivo, human
- measurementConditions: human, plasma, iv, 0.25 g, part A cohort 1, single 0.25 g, 3-h i.v. infusion

{"smilesNotation": "CC1=C[C@@H]2CN(C(=O)N2OS(=O)(=O)O)[C@@H]1C(N)=O", "unitAnnotation": "ng/mL", "Cmax": 6900}

====

- protocolSummary: Part B multiple-ascending-dose plasma PK in healthy subjects
- Type: in vivo, human
- measurementConditions: human, plasma, iv, 1 g, part B cohort 11 (5 subjects), 1.0 g q6h 3-h i.v. infusion, day 8, median

{"smilesNotation": "CC1=C[C@@H]2CN(C(=O)N2OS(=O)(=O)O)[C@@H]1C(N)=O", "Tmax": "3 h"}

====

- protocolSummary: Urine PK (urinary excretion, renal clearance) in healthy subjects
- measurementConditions: human, urine, intravenous, CLr, part C cohort 13, Day 5 (DUR 1 g + sulbactam 1 g)

{"smilesNotation": "CC1=C[C@@H]2CN(C(=O)N2OS(=O)(=O)O)[C@@H]1C(N)=O", "CL renal": "81 mL/min"}
